System: MILI (PIWIL2) piRISC loaded with piRNA #1 (26 nt);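 also: 1 nM active piRISC with 0.1 nM target library at 33 °C single turnover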
Assay: pre-steady-state target cleavage rate (min^-1); guide: piRNA #1 5'p-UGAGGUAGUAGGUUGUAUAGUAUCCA; MIWI and MILI are mouse PIWI proteins and EfPiwi is from a freshwater sponge; tags in brackets are library labels; higher = faster piRNA-guided slicing of the target
Details: auxiliary factor: 500 nM mouse GTSF1
MEASUREMENT_KIND: pre-steady-state target cleavage rate
The reply should be a number, written without any unit.

Recorded pre-steady-state target cleavage rate, per entry:
>  <CHAIN_SEQUENCE>
GGAGACCUUACUAUACAACCUACUUGCUCA

>  <MEASUREMENT_KIND>
pre-steady-state target cleavage rate

>  <OBSERVED_VALUE>
0.098

$$$$
>  <CHAIN_SEQUENCE>
GGAGACCAAACUAUACAACCUAGUACCUCA

>  <MEASUREMENT_KIND>
pre-steady-state target cleavage rate

>  <OBSERVED_VALUE>
0.0169

$$$$
>  <CHAIN_SEQUENCE>
GGAGACCAUACUAAACAACGUACUACCUCA

>  <MEASUREMENT_KIND>
pre-steady-state target cleavage rate

>  <OBSERVED_VALUE>
0.0192

$$$$
>  <CHAIN_SEQUENCE>
GGAGACCAUACUAUACAACCUCCUACCUCA

>  <MEASUREMENT_KIND>
pre-steady-state target cleavage rate

>  <OBSERVED_VALUE>
0.0492

$$$$
>  <CHAIN_SEQUENCE>
GGAGACCUAUGAUUACAUCCUUCUACCUCA

>  <MEASUREMENT_KIND>
pre-steady-state target cleavage rate

>  <OBSERVED_VALUE>
0.00314

$$$$

Data point: GGAGACCUAUGUAUACAAUCUACUACCUCA ; pre-steady-state target cleavage rate = 0.0642

Lookup result for GGAGUGGAUACUAUAGAACGUACUACCUCA ; measured pre-steady-state target cleavage rate: 0.0156

The measured pre-steady-state target cleavage rate associated with GGAGACCUAACUAAACAACCUACUUCCUCA reads 0.0346

GGAGUGGAUACUAUACAAGGAACUACCUCA has a reported pre-steady-state target cleavage rate of 0.00353

Measured pre-steady-state target cleavage rate of GGAGACGAUACUAUACAUGCUACUACCUCA : 0.115

Reported pre-steady-state target cleavage rate for GGAGACCUAACUAAACAUCCUACUACCUCA was 0.216

Lab book: pre-steady-state target cleavage rate of GGAGAGCAUACUAUACAACCAACUACCUCA noted as 0.00634
